tested on: SF-268; test: NCI tumour cell line growth inhibition, 48 h
The source made the active and inactive calls. No stated cut-off is given here; in the data, active = GI50 up to about 1.1 µM and inactive = higher. Peptide text beside a SMILES is read from it. * marks the point of attachment. Cbz = O=C(OCc1ccccc1)*
Measured metric: GI50

# Molecule, Measured metric, Reported
measured = [
    ("CC1=NN(C(=O)c2ccc(Cl)cc2)C(=O)/C1=C/c1ccc(Cl)cc1", "GI50", "> 100 µM (inactive)"),
    ("CCOC(=O)C(/C(=N/NC(=O)OC)C(=O)Nc1ccc(C(C)=O)cc1)c1cnc2ccccc2n1 (stereo unspecified)", "GI50", "> 100 µM (inactive)"),
    ("O=C(CNc1ccccc1[N+](=O)[O-])Nn1c(-c2ccccc2)nc2ccccc2c1=O", "GI50", "32.4 µM (inactive)"),
    ("O=C1CCC2(O)C3Cc4ccc(Oc5nnnn5-c5ccccc5)c5c4C2(CCN3CC2CC2)C1O5 (stereo unspecified)", "GI50", "34.7 µM (inactive)"),
    ("O=[N+]([O-])c1ccc2c(c1)OCCOCCOc1ccc([N+](=O)[O-])cc1OCCOCCO2", "GI50", "> 100 µM (inactive)"),
    ("COc1ccc(/C=C2/C[N+](C)(C)C/C(=C/c3ccc(OC)cc3)C2=O)cc1", "GI50", "26.9 µM (inactive)"),
    ("CC(O)(CNS(=O)(=O)c1ccccc1)c1ccccc1 (stereo unspecified)", "GI50", "> 100 µM (inactive)"),
    ("CN1CCN(c2n[nH]c(=O)c3c2nnn3C2CCCCC2)CC1", "GI50", "> 100 µM (inactive)"),
    ("CC1(C)Oc2ccc3c(=O)cc(-c4ccccc4)oc3c2C1C(=O)O (stereo unspecified)", "GI50", "> 100 µM (inactive)"),
    ("O=C(O)c1cc2c(cc1CC(Cc1ccccc1)C(=O)O)CCC2 (stereo unspecified)", "GI50", "> 100 µM (inactive)"),
    ("CC1=C(/C=C/C(C)=C/C=C/C(C)=C/C(=O)Nc2ccc(O)cc2)C(C)(C)CCC1 [FENRETINIDE]", "GI50", "3.52 µM (inactive)"),
    ("CN1CCCC2C(c3ccccc3)C(C3=NCCCC3)C(c3ccccc3)CC21 (stereo unspecified)", "GI50", "59.3 µM (inactive)"),
    ("CNC(=O)N1CN(c2ccccc2)C2(CCN(CCCC(=O)c3ccc(F)cc3)CC2)C1=O", "GI50", "39.1 µM (inactive)"),
    ("CC(C)=CCNc1ncnc2c1ncn2CCC(=O)OC(C)(C)C", "GI50", "> 100 µM (inactive)"),
    ("CCCC(=O)OCOC(=O)N(C)/N=N/c1ccc(C(=O)OCC)cc1", "GI50", "28.3 µM (inactive)"),
    ("Cc1ccc(N2C[N+](c3ccccc3)=NC(c3ccccc3)=N2)cc1", "GI50", "> 100 µM (inactive)"),
    ("c1ccc2c(CNCCCCCCNCc3cccc4ccccc34)cccc2c1", "GI50", "11.9 µM (inactive)"),
    ("CCOC(=O)/C(C(=O)Nc1cccc(C(F)(F)F)c1)=C(/N)N1CCCC1", "GI50", "54.3 µM (inactive)"),
    ("O=C(O)CCC(NC(=O)OCc1ccccc1)C(=O)NC(Cc1c[nH]cn1)C(=O)O (stereo not drawn) (Cbz-Glu-His-OH; configuration not given here)", "GI50", "> 100 µM (inactive)"),
    ("O=S(=O)(O)CCCC1S(=O)(=O)OCCOS1(=O)=O", "GI50", "> 100 µM (inactive)"),
    ("NCCNCCCNC(=O)c1cc(-c2ccccc2)nc2ccccc12", "GI50", "26.1 µM (inactive)"),
    ("COC(=O)[C@@H](NC(=O)[C@H](N)Cc1ccc(N(CCCl)CCCl)cc1)C(C)C", "GI50", "10.6 µM (inactive)"),
    ("O=C(Nc1ccccc1Br)c1cccc([N+](=O)[O-])c1O", "GI50", "4.47 µM (inactive)"),
    ("COCC12CC(CC1=O)C1C2ON2c3ccccc3C(=O)C12c1ccccc1 (stereo unspecified)", "GI50", "> 100 µM (inactive)"),
    ("NC1CC(=O)c2csc(Cl)c21 (stereo unspecified)", "GI50", "10.1 µM (inactive)"),
    ("NS(=O)(=O)c1ccc(/N=N/c2ccc(O)c(O)c2)cc1", "GI50", "14.5 µM (inactive)"),
    ("CC(C)C1COC(c2cccc(C3=N[C@@H](C(C)C)CO3)n2)=N1 (stereo partly specified)", "GI50", "> 100 µM (inactive)"),
    ("O=[N+]([O-])c1cc(-[n+]2cc([O-])on2)ccc1F", "GI50", "14.8 µM (inactive)"),
    ("Oc1ccccc1/C=N/Nc1nc(N/N=C/c2ccccc2O)nc(N/N=C/c2ccccc2O)n1", "GI50", "> 100 µM (inactive)"),
    ("COc1ccc2c3c(n(Cc4ccccc4)c(=O)c2c1)-c1cc(OC)c(OC)cc1C3C (stereo unspecified)", "GI50", "9.91 µM (inactive)"),
    ("NC(Cc1ccc(O)cn1)C(=O)NC(C(=O)O)c1ccccc1 (stereo unspecified)", "GI50", "> 100 µM (inactive)"),
    ("COC(=O)[C@]12CC[C@H]3CN(C(=O)OCc4ccccc4)[C@H]([C@H]31)[C@H](c1ccco1)N2S(=O)(=O)c1ccc(C)cc1", "GI50", "24.2 µM (inactive)"),
    ("CCOCCOc1ccc(OCCOCC)cc1", "GI50", "17 µM (inactive)"),
    ("COc1cc(C(=O)Nc2cccc3ccccc23)c(Br)c(OC)c1OC", "GI50", "97.1 µM (inactive)"),
    ("O=C1C2C=CC1C1C(=O)OC(=O)C21 (stereo unspecified)", "GI50", "> 100 µM (inactive)"),
    ("COc1cc(C(=O)O)cc2c1[nH]c1ccccc12 [MUKOEIC ACID]", "GI50", "> 25 µM (inactive)"),
    ("CC1(C)CC[C@]2(C)CC[C@]3(C)C(=CC[C@@H]4[C@@]5(C)CCC(=O)C(C)(C)[C@@H]5[C@H](O)C[C@]43C)[C@@H]2C1", "GI50", "17.8 µM (inactive)"),
    ("O=C(c1ccco1)N(Cc1ccco1)C(=S)Nc1ccccc1", "GI50", "20.2 µM (inactive)"),
    ("c1ccc2cc(CNCCCCNCCCNCc3ccc4ccccc4c3)ccc2c1", "GI50", "1.41 µM (inactive)"),
    ("O=C1NC(=S)N/C1=C/c1c(-c2ccccc2)[nH]c2ccccc12", "GI50", "25.7 µM (inactive)"),
    ("COc1cc2c(cc1O)NC(=S)[C@@H]1CCCN1C2=O", "GI50", "> 100 µM (inactive)"),
]

---

system: UO-31; experiment: NCI tumour cell line growth inhibition, 48 h
Calls of active or inactive are those of the source. Cut-off read from the data, not from the text of the source: active = GI50 up to about 1.1 µM and inactive = higher.
This section presents compounds with their documented GI50 values.
Measured metric: GI50

# Compound, Subject of test, Reported
data = [
    ("Cc1c(C(Cc2ccccc2N(C)C(=O)/C=C\\C(=O)O)c2c[nH]c3ccccc23)c2ccccc2n1C (stereo not given)", "UO-31", "14.5 µM (inactive)"),
    ("NC(=O)n1ncc(Cl)c(Cl)c1=O", "UO-31", "> 100 µM (inactive)"),
    ("CCc1ccccc1NC(=O)C(=O)CC(=O)c1sc(Nc2ccccc2)nc1C", "UO-31", "> 100 µM (inactive)"),
    ("Oc1ccccc1/C=N/Nc1nc(N/N=C/c2ccccc2O)nc(N/N=C/c2ccccc2O)n1", "UO-31", "> 100 µM (inactive)"),
    ("Clc1ccc(C2=NNC(c3cccc(Cl)c3)C2)cc1 (stereo not given)", "UO-31", "1.9 µM (inactive)"),
    ("N#C/C=c1/c2ccccc2n2nc3ccccc3c12", "UO-31", "10.8 µM (inactive)"),
    ("O=C(COc1ccc(Cl)cc1Cl)N/N=C/C=C/c1ccc([N+](=O)[O-])o1", "UO-31", "5.05 µM (inactive)"),
    ("CC1(C)CC(=O)C(C(=O)C(=O)NC2=C(Cl)C(=O)c3ccccc3C2=O)C(=O)C1", "UO-31", "57.4 µM (inactive)"),
    ("O=C(CCCN1CCC2(CC1)C(=O)NC(=O)N2c1ccccc1)c1ccc(F)cc1", "UO-31", "> 100 µM (inactive)"),
    ("COc1cc(C(=O)Nc2cccc3ccccc23)c(Br)c(OC)c1OC", "UO-31", "31.4 µM (inactive)"),
    ("CC(=O)O[C@H]1C[C@@H](OC(C)=O)[C@@](C)(O)[C@@H]2[C@@H](OC(C)=O)[C@@]3(O)[C@H](/C=C(/CO)[C@H]4O[C@H]4[C@@H](OC(C)=O)[C@@]12C)OC(=O)[C@@H]3C", "UO-31", "22.5 µM (inactive)"),
    ("CCCO/S(=N\\S(=O)(=O)c1ccccc1)c1ccccc1[N+](=O)[O-] (stereo not given)", "UO-31", "> 100 µM (inactive)"),
    ("O=C1C2C=CC1C1C(=O)OC(=O)C21 (stereo not given)", "UO-31", "> 100 µM (inactive)"),
    ("COC(=O)C1=CC2C(=O)c3ccccc3C1(c1ccccc1)N2C1CCCCC1 (stereo not given)", "UO-31", "15.1 µM (inactive)"),
    ("CCOc1ccc(NC(=O)C(=O)NO)cc1", "UO-31", "> 100 µM (inactive)"),
    ("CC[C@H](C)[C@H](NC(=O)[C@H](Cc1ccc(O)cc1)NCC(F)(F)F)C(=O)OC(C)(C)C", "UO-31", "7.64 µM (inactive)"),
    ("O=C(NCCCCCCNC(=O)c1cccc2ccccc12)c1cccc2ccccc12", "UO-31", "31.5 µM (inactive)"),
    ("NCCNCCCNC(=O)c1cc(-c2ccccc2)nc2ccccc12", "UO-31", "46 µM (inactive)"),
    ("Cc1cc2c(cc1C)[n+]([O-])c(C(=O)/C=C/c1ccc(Cl)cc1)c(C)[n+]2[O-]", "UO-31", "17.9 µM (inactive)"),
    ("O=c1c(=O)c2c(Br)sc(Br)c2c1=O", "UO-31", "33 µM (inactive)"),
]
